Test: Ex vivo metabolism of LAT8881 in rat whole blood
Type: in vitro ADME
Details: rat, blood
Positions of bridges follow the written chain, without caps; N, C: chain ends. Residues, ends and D or L forms follow the SMILES beside them.
Readout Type: half-life

Item CC(C)[C@@H]1NC(=O)[C@H](CO)NC(=O)[C@H](CCCNC(=N)N)NC(=O)[C@@H](N)CSSC[C@@H](C(=O)NCC(=O)N[C@@H](Cc2ccccc2)C(=O)O)NC(=O)[C@H](CO)NC(=O)CNC(=O)[C@H](CCC(=O)O)NC1=O [LAT9991F, CRSVEGSCGF] (H-CRSVEGSCGF-OH; disulfide 1-8; N-terminus and C-terminus assumed) has what recorded half-life?
> 1 h

====

Experiment: Ex vivo metabolism of LAT8881 in human whole blood
Format: in vitro ADME
Details: human, blood
Positions of bridges follow the written chain, without caps; N, C: chain ends. Residues, ends and D or L forms follow the SMILES beside them.
Readout Type: half-life

Item CC(C)[C@@H]1NC(=O)[C@H](CO)NC(=O)[C@H](CCCNC(=N)N)NC(=O)[C@@H](N)CSSC[C@@H](C(=O)NCC(=O)N[C@@H](Cc2ccccc2)C(=O)O)NC(=O)[C@H](CO)NC(=O)CNC(=O)[C@H](CCC(=O)O)NC1=O [LAT9991F, CRSVEGSCGF] (H-CRSVEGSCGF-OH; disulfide 1-8; N-terminus and C-terminus assumed) has what recorded half-life?
> 1 h

====

Experiment: Ex vivo metabolism of LAT8881 in rat whole blood
Type: in vitro ADME
Conditions: rat blood, LAT8881-spiked, 37° C.; read-out: ex vivo half-life
Positions of bridges follow the written chain, without caps; N, C: chain ends. Residues, ends and D or L forms follow the SMILES beside them.
Readout Type: half-life

Item CC[C@H](C)[C@H](NC(=O)[C@H](CCCNC(=N)N)NC(=O)[C@H](CC(C)C)NC(=O)[C@@H](N)Cc1ccc(O)cc1)C(=O)N[C@H](C(=O)N[C@@H](CCC(N)=O)C(=O)N[C@H]1CSSC[C@@H](C(=O)NCC(=O)N[C@@H](Cc2ccccc2)C(=O)O)NC(=O)[C@H](CO)NC(=O)CNC(=O)[C@H](CCC(=O)O)NC(=O)[C@H](C(C)C)NC(=O)[C@H](CO)NC(=O)[C@H](CCCNC(=N)N)NC1=O)C(C)C [LAT8881, YLRIVQCRSVEGSCGF] (H-YLRIVQCRSVEGSCGF-OH; disulfide 7-14; N-terminus and C-terminus assumed) has what recorded half-life?
3 to 6 min

====

Conditions: in vivo
Positions of bridges follow the written chain, without caps; N, C: chain ends. Residues, ends and D or L forms follow the SMILES beside them.
Readout Type: half-life

Item CC[C@H](C)[C@H](NC(=O)[C@H](CCCNC(=N)N)NC(=O)[C@H](CC(C)C)NC(=O)[C@@H](N)Cc1ccc(O)cc1)C(=O)N[C@H](C(=O)N[C@@H](CCC(N)=O)C(=O)N[C@H]1CSSC[C@@H](C(=O)NCC(=O)N[C@@H](Cc2ccccc2)C(=O)O)NC(=O)[C@H](CO)NC(=O)CNC(=O)[C@H](CCC(=O)O)NC(=O)[C@H](C(C)C)NC(=O)[C@H](CO)NC(=O)[C@H](CCCNC(=N)N)NC1=O)C(C)C [LAT8881, YLRIVQCRSVEGSCGF] (H-YLRIVQCRSVEGSCGF-OH; disulfide 7-14; N-terminus and C-terminus assumed) has what recorded half-life?
< 1 min
